Consider the following binders and their measured pKd readings.
Target: alpha-synuclein (Homo sapiens, UniProt P37840)
Experiment: NMR PRE titration
pKd: −log10 of the molar value.

> print(dat)
                                     binder  recorded.metric  result
1  YEMPSEEGYQDYEPEA [alpha-synuclein 125-140]              pKd   ~3.30

Item under review: EGESYEDPPQEEYQEYEPEA [beta-synuclein 115-134] . Reported pKd?
~4.00
